# Test system: T1, ヒト組織因子経路インヒビター (human TFPI) (human, UniProt P10646 29-304, limits assumed)
# T1 construct: Coated on Maxisorp plates (ELISA) or amine-coupled to a CM5 chip (Biacore); also called ヒトTFPI; hTFPI
# T1 sequence (looked up): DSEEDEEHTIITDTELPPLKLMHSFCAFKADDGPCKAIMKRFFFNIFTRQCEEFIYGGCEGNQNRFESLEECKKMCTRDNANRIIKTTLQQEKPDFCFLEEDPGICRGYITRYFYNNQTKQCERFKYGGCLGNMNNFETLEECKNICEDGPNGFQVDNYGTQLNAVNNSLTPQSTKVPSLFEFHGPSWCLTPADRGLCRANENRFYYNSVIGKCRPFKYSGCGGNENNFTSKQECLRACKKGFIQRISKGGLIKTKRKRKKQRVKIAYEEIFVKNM
# Procedure text: ELISA, Fab in bacterial lysate on human TFPI-coated plate
Observation type: binding result

{"columns": ["Binder", "Observation type", "Test value"],
 "data": [
  ["TP-2C1 (Fab, V domains shown, Human Fab (HuCal Gold), made in E. coli TG1) VH: QVQLVESGGGLVQPGGSLRLSCAASGFTFSPYVMSWVRQAPGKGLEWVSSISSSSSNTYYADSVKGRFTISRDNSKNTLYLQMNSLRAEDTAVYYCARGDSYMYDVWGQGTLVTVSS VL: DIELTQPPSVSVAPGQTARISCSGDSIGSYYAHWYQQKPGQAPVLVIYYDSKRPSGIPERFSGSNSGNTATLTISGTQAEDEADYYCQAYTGQSISRVFGGGTKLTVLG", "binding result", "binds"],
  ["TP-2G4 (Fab, V domains shown, Human Fab (HuCal Gold), made in E. coli TG1) VH: QVQLVESGGGLVQPGGSLRLSCAASGFTFSSYAMTWVRQAPGKGLEWVSNISYSGSNTYYADSVKGRFTISRDNSKNTLYLQMNSLRAEDTAVYYCARVGYYYGFDYWGQGTLVTVSS VL: DIELTQPPSVSVAPGQTARISCSGDALRKHYVYWYQQKPGQAPVLVIYGDNNRPSGIPERFSGSNSGNTATLTISGTQAEDEADYYCQSYDKPYPILVFGGGTKLTVLG", "binding result", "binds"]
]}
